Numbered stars: 1 amine (or outer) side, 2 acyl side, 3 side chain; on linkers, the order of the positions; unused ones are H or OH. Square brackets hold non-standard residues; d marks the D form. Peptide text beside a SMILES is read from it. βAla(3R-(1-naphthyl)) = O=C(C[C@@H](N[*:1])c1cccc2ccccc12)[*:2]

| Molecule | solubility |
| --- | --- |
| N=C(N)NCCC[C@@H]1NC(=O)[C@H]2CCCN2C(=O)[C@@H]2CCCN2C(=O)[C@H](CCCNC(=N)N)NC(=O)C[C@H](c2cccc3ccccc23)NC(=O)[C@H](Cc2ccccc2)NC(=O)[C@H](CC(=O)O)NC(=O)[C@H](CC(=O)O)NC(=O)[C@H](Cc2ccccc2)NC(=O)C[C@H](c2cccc3ccccc23)NC1=O [compound 18, reference compound] (cyclo(P[dP]R[βAla(3R-(1-naphthyl))]FDDF[βAla(3R-(1-naphthyl))]R)) | < 500 µg/mL |

----------
Experiment: Stability in human serum (in vitro, HPLC)
Assay type: in vitro ADME
Details: human, human serum; up to 50 h; read-out: intact peptide in human serum

| Molecule | remaining at 50 h, 2 mg/mL |
| --- | --- |
| CC[C@H](C)[C@@H]1NC(=O)[C@H](CCCNC(=N)N)NC(=O)C[C@@H](c2cccc3ccccc23)NC(=O)[C@@H]2CSSC[C@H](NC(=O)C[C@@H](c3cccc4ccccc34)NC(=O)[C@H](CCCNC(=N)N)NC(=O)[C@@H]3CCCN3C(=O)[C@@H]3CCCN3C1=O)C(=O)N[C@@H](Cc1ccccc1)C(=O)N1CCC[C@H]1C(=O)N[C@@H](CC(=O)O)C(=O)N[C@@H](CC(=O)O)C(=O)N[C@@H](Cc1ccccc1)C(=O)N2 [SFTI-G5, Cyclo(C(S-X)RIPPR(S-X)CFPDDF)] | ~60% |
